- Test system: MycCI (Micromonospora griseorubida, UniProt Q83WF5)
- Sequence (Q83WF5 whole entry): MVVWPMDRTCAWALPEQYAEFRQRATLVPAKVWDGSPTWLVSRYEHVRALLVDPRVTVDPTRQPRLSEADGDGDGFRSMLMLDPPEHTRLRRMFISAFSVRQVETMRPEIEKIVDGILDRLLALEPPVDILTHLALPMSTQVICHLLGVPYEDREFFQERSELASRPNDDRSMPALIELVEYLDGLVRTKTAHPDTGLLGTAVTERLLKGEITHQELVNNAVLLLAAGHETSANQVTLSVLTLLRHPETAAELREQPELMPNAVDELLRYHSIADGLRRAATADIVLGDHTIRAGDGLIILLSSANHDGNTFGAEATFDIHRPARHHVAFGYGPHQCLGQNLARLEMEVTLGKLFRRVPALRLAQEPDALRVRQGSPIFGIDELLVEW
Measurement type: pKd
The value called pKd is obtained by taking minus log10 of the concentration in mol/L.

**Q:** Recorded pKd for CC[C@H]1OC(=O)/C=C/[C@@H](C)[C@H](O[C@H]2O[C@@H](C)C[C@@H](N(C)C)[C@@H]2O)[C@H](C)C[C@@H](C)C(=O)/C=C\C=C\[C@H]1C [M-VIII, mycinamicin VIII] , please?
**A:** 4.55
